experiment: VP16 counterscreen qHTS for inhibitors of ROR gamma transcriptional activity; settings: Drosophila S2 Gal4-VP16 UAS-luciferase, luminescence, 20 h; series mostly up to 53.6 µM;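 further: Gal4-VP16 expression switched on by copper sulfate through the metallothionein promoter; nearly all actives have a fitted effect of over 50% in size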
The campaign covered roughly 310,000 compounds. About 11,000 (3.5%) were called active. Roughly 8% stayed inconclusive and do not appear here. The call rests on the fitted dose curve; in most records, active means well fitted inhibition curve with a large enough effect; inconclusive means small, poorly fitted or top-dose-only effect, or effect the other way; inactive means flat fitted curve, though single readings scatter. For the sample, actives were picked, then their nearest neighbours and some compounds at random.
Classes used: y for active, n for inactive

| compound | class_label |
| --- | --- |
| O=C(Cc1ccccc1F)NC1CCSc2ccccc21 (stereo not given) | n |
| CC(C)c1nc2cc(C(=O)NC(C)c3cnn(C)c3)ccc2o1 (stereo not given) | n |
| COc1ccccc1OCc1ccc(C(=O)NC(C)c2ccccc2)o1 (stereo not given) | n |
| CCNC(=O)N1CCCC(C(=O)c2ccc(-c3ccccc3)cc2)C1 (stereo not given) | n |
| COc1ccc(C(=O)CSc2nnc(-c3ccco3)o2)cc1 | n |
| COc1ccc(/C=C2\SC(=O)N(CCC(=O)NCCCn3ccnc3)C2=O)cc1 | n |
| CC(C)c1nc2ccc(C(=O)O)cc2[nH]1 | y |
| CCc1cccc(CC)c1NC(=S)Nc1ccc2cn[nH]c2c1 | n |
| CCc1ccc(-c2nnn(Cc3nc4ccccc4s3)n2)cc1 | y |
| COc1ccc(-c2nnc(SCC(=O)c3cccs3)o2)c(OC)c1 | n |
| Clc1ccccc1-c1cc(NCCN2CCOCC2)ncn1 | n |
| CC1COc2ccccc2N1C(=O)c1ccc(F)cc1 (stereo not given) | n |
| COc1ccc(CN2CCNC(=O)C2CC(=O)NCc2cn[nH]c2-c2ccccc2)c(F)c1 (stereo not given) | n |
| CCn1c(C(C)NC(=O)c2ccc(C)cc2)n[nH]c1=S (stereo not given) | n |
| CCCN1CCn2c3c(c4cc(Br)ccc42)CCCC31 (stereo not given) | n |
| Cc1cc(C(=O)CSc2nc(N)cc(=O)[nH]2)c(C)n1-c1cccc(F)c1 | y |
| CCOc1ccccc1N1CN(Cc2ccccc2)CNC1=S | y |
| CC(C)(C)OC(=O)NNc1c2ccccc2nc2ccccc12 | n |
| Clc1ccc(-c2nnc(SCc3nc4ccccc4s3)o2)cc1 | n |
| Cc1ccc(OCCCC(=O)Nc2ccc(S(=O)(=O)Nc3cc(C)nc(C)n3)cc2)cc1 | n |
| O=C(Nc1cccc(NC(=O)c2ccccc2[N+](=O)[O-])c1)c1ccccc1Cl | n |
| c1ccc2cc3c(NCCN4CCOCC4)ccnc3cc2c1 | y |
| CN(c1ccccc1)S(=O)(=O)c1ccc(NC(=O)COc2ccccc2)cc1 | n |
| COc1ccc(N(C(=O)c2cccnc2)S(=O)(=O)c2ccc(OC)c(OC)c2)cc1 | n |
| Cc1nnnn1/C(=C\c1ccccc1)C(=O)OCC(=O)N1CC2(C)CC1CC(C)(C)C2 (stereo not given) | y |
| Nc1nonc1-n1nnc(C(=O)N/N=C/C2CCCCC2)c1-c1ccccc1 | n |
| CC(C)c1ccc(NC(=O)Cn2ncc3ccccc32)cc1 | n |
| COc1ccccc1C(=O)N1CC2(C)CC1CC(C)(C)C2 (stereo not given) | n |
| Cc1cc(C(=O)CSc2nc(N)cc(=O)[nH]2)c(C)n1CCc1ccc(Cl)cc1 | n |
| COc1ccccc1CNC(=O)C1CCN(S(=O)(=O)c2ccc3c(c2)CC(C)N3C(=O)C2CC2)CC1 (stereo not given) | n |
| C/C(=N\Nc1ncc(Cl)cc1Cl)c1ccc(S(=O)(=O)NCc2ccco2)cc1 | y |
| CC(C)n1c(-c2ccncc2)n[nH]c1=S | n |
| Nc1nonc1-n1nnc(C(=O)N/N=C/c2c[nH]c3ccccc23)c1-c1ccccc1 | n |
| Cc1nc2ccc(C(=O)O)cc2[nH]1 | n |
| Cc1ccn2c(c1)nc(=O)c1cc(S(=O)(=O)N3CCC(C)CC3)ccc12 | n |
| O=C(Nc1ccccc1F)c1ccc2c(c1)OCO2 | n |
| COc1cc(/C=C2\SC(=S)N(Nc3ncc(C(F)(F)F)cc3Cl)C2=O)cc(OC)c1OC | n |
| O=C(N/N=C/c1ccoc1)c1ccc(Cl)cc1Cl | n |
| Cc1cc(=O)oc2c3c(cc(OCC(=O)NCc4ccccn4)c12)OC(C)(C)CC3 | n |
| COC(=O)Cc1ccc(Oc2ncc(C(F)(F)F)cc2Cl)cc1 | n |
| COc1ccc(C(=O)NCc2nnc(SCC(=O)NC3=NCCS3)n2C)cc1 | n |
| CCc1nn(CCCC(=O)Nc2ccc(C)c(C)c2)c(=O)c2cc3occc3n12 | n |
| O=C(Nc1nnc(C2COc3ccccc3O2)o1)c1ccc(F)cc1 (stereo not given) | y |
| Cc1cccc(C(=O)Nc2ccccc2N2CCN(c3ccc(F)cc3)CC2)c1 | n |
| COc1ccc(OC)c(C(=O)CSc2nnc(-c3cccs3)o2)c1 | y |
